# target-system: T1, human TL1A extracellular domain with N-terminal HIS and FLAG tag (human, UniProt O95150 72-251)
# T1 construct: the whole entry is named
# T1 sequence: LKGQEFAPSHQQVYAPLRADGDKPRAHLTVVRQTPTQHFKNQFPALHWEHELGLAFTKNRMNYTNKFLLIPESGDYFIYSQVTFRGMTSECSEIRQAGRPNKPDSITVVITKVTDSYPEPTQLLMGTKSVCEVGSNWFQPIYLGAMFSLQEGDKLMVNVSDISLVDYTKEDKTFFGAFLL
# measurement-protocol: SPR Run 6, purified Ab captured on Protein A, TL1A 5 ug/mL, timepoint 170
# Experimental: 1.5. Antibody expression and antigen binding as determined by SPR. Using a CM5 sensor chip (GE Healthcare) Protein A (Pierce) was coupled to the chip surface using an amine coupling kit (GE Healthcare). Protein A was coupled on flow cell 1 and 2 (or alternatively 3 and 4) using a BIACORE® T200. […] At the end of injection of the supernatant or purified antibody the change in response units was measured. […] The response units were measured prior to the end of the dissociation phase. […]

[
  {
    "binder": "320-446 (antibody, human IgG1, name in Kabat numbering, V domains shown, human IgG1, lambda) VH: QVQLVQSGAEVKKPGASVKVSCKASGYTFTSYAINWVRQAPGQGLEWMGWLNPNSGNTGYAQKFQGRVTMTADRSTSTAYMELSSLRSEDTAVYYCAREVPETAAFEYWGQGTLVTVSS VL: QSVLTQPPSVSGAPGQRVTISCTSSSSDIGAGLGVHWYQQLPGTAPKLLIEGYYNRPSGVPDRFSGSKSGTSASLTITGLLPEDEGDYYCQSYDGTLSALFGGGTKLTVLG",
    "units-symbol": "RU",
    "TL1A Binding Level (Late)": 8
  },
  {
    "binder": "320-442 (antibody, human IgG1, name in Kabat numbering, V domains shown, human IgG1, lambda) VH: QVQLVQSGAEVKKPGASVKVSCKASGYTFTSHDINWVRQAPGQGLEWMGWLNPNSGNTGYAQKFQGRVTMTADRSTSTAYMELSSLRSEDTAVYYCAREVPETAAFEYWGQGTLVTVSS VL: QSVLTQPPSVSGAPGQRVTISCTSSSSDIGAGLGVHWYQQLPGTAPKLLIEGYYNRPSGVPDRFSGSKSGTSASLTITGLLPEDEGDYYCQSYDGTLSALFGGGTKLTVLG",
    "units-symbol": "RU",
    "TL1A Binding Level (Late)": 113
  },
  {
    "binder": "320-436 (antibody, human IgG1, name in Kabat numbering, V domains shown, human IgG1, lambda) VH: QVQLVQSGAEVKKPGASVKVSCKASGYTFTWYDINWVRQAPGQGLEWMGWLNPNSGNTGYAQKFQGRVTMTADRSTSTAYMELSSLRSEDTAVYYCAREVPETAAFEYWGQGTLVTVSS VL: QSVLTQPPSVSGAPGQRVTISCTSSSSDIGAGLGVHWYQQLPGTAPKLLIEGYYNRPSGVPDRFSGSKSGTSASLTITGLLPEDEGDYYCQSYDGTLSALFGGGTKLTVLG",
    "units-symbol": "RU",
    "TL1A Binding Level (Late)": 118
  }
]
